Each recorded value in this set is attributed to ChEMBL document CHEMBL3885881.

Species: Rattus norvegicus
Test: DrugMatrix - Regimen: Daily Repeat
Assay type: toxicity, organism-based, Sprague-Dawley
Parameters: regimen Daily Repeat, gender Male, age 6-8 weeks
Conditions: in vivo, po, 1500 mg/kg, 72 h, tissue Plasma, route oral GAVAGE, dose level High, time 3 day, vehicle .5 % CMC
readoutLabel: BLOOD UREA NITROGEN (mg/dL)
Report the value in mg/dL with no unit label.

For COC(=O)Nc1nc2ccc([S+]([O-])c3ccccc3)cc2[nH]1 (stereo not given) , what is its reported BLOOD UREA NITROGEN? 15.33

====

Species: Rattus norvegicus
Test: DrugMatrix - Regimen: Daily Repeat
Assay type: toxicity, organism-based, Sprague-Dawley
Parameters: regimen Daily Repeat, gender Male, age 6-8 weeks
Conditions: in vivo, po, 50 mg/kg, 120 h, tissue Plasma, route oral GAVAGE, dose level Low, time 5 day, vehicle .5 % CMC
readoutLabel: CREATINE PHOSPHOKINASE (u/L)
Report the value in u/L with no unit label.

Use the examples below as a reference point.
1) CN(C)[C@@H]1C(O)=C(C(N)=O)C(=O)[C@@]2(O)C(O)=C3C(=O)c4c(O)ccc(Cl)c4[C@@](C)(O)[C@H]3C[C@@H]12
329.33
2) CCN1CCC[C@H]1CNC(=O)c1cc(S(N)(=O)=O)ccc1OC [LEVOSULPIRIDE]
137.33
3) Cc1cccc(C)c1OCC(C)N (centres undefined)
325.67

Please find the next compound below.
For NC1CCN(c2nc3c(cc2F)c(=O)c(C(=O)O)cn3-c2ccc(F)cc2F)C1 (centres undefined) , what is its reported CREATINE PHOSPHOKINASE? 106.33

====

Here the recorded MEAN CORPUSCULAR HEMOGLOBIN is given for each entry.
Organism: Rattus norvegicus
Assay: DrugMatrix - Regimen: Daily Repeat
Format: toxicity, organism-based, Sprague-Dawley
Set-up: regimen Daily Repeat, gender Male, age 6-8 weeks
Settings: in vivo, po, 0 mg/kg, 72 h, tissue Blood, route oral GAVAGE, dose level Control, time 3 day, […]
A bare number is not enough; add the unit after it.

Use the examples below as a reference point.
1) COc1cc(N)c(Cl)cc1C(=O)NC1CCN(CCCOc2ccc(F)cc2)CC1OC (centres undefined) [CISAPRIDE]
24.37 pg
2) CO[C@H]1/C=C/O[C@@]2(C)Oc3c(C)c(O)c4c(O)c(c(/C=N/N5CCN(C6CCCC6)CC5)c(O)c4c3C2=O)NC(=O)/C(C)=C\C=C\[C@H](C)[C@H](O)[C@@H](C)[C@@H](O)[C@@H](C)[C@H](OC(C)=O)[C@@H]1C
23.38 pg
3) CC(C)(C)NC(=O)[C@H]1CC[C@H]2[C@@H]3CC[C@H]4NC(=O)C=C[C@]4(C)[C@H]3CC[C@]12C [FINASTERIDE]
24.57 pg

For Clc1ccc(COC(Cn2ccnc2)c2ccc(Cl)cc2Cl)cc1 (centres undefined) , what is its reported MEAN CORPUSCULAR HEMOGLOBIN? 26.7 pg

====

Species: Rattus norvegicus
Assay: DrugMatrix - Regimen: Daily Repeat
Type: toxicity, organism-based, Sprague-Dawley
Parameters: regimen Daily Repeat, gender Male, age 6-8 weeks
Details: in vivo, po, 0 mg/kg, 120 h, tissue Plasma, route oral GAVAGE, dose level Control, time 5 day, vehicle .5 % CMC
Returns fulfilled if the recorded ALANINE AMINOTRANSFERASE is greater than or equal to 40 u/L, and not fulfilled otherwise.

Some solved cases for reference:
1. CCN(CC)CCOc1ccc(/C(=C(/Cl)c2ccccc2)c2ccccc2)cc1
fulfilled
2. CN(C/C=C/C#CC(C)(C)C)Cc1cccc2ccccc12
not fulfilled
3. CC(C(=O)O)c1ccc2oc(-c3ccc(Cl)cc3)nc2c1 (centres undefined)
fulfilled
4. COC1=C(OC)C(=O)C(CCCCCCCCCCO)=C(C)C1=O
fulfilled
5. NCCCC(O)(P(=O)(O)O)P(=O)(O)O
not fulfilled
6. CN/C(=N/CCSCc1nc[nH]c1C)NC#N
fulfilled
7. O=C1C(CC[S+]([O-])c2ccccc2)C(=O)N(c2ccccc2)N1c1ccccc1 (centres undefined)
fulfilled
8. COc1ccc(C2C(=O)c3ccccc3C2=O)cc1
not fulfilled

Now for a further compound.
Does ALANINE AMINOTRANSFERASE meet or surpass 40 u/L for CNCCC(Oc1ccc(C(F)(F)F)cc1)c1ccccc1 (centres undefined) ? fulfilled

====

Organism: Rattus norvegicus
Experiment: DrugMatrix - Regimen: Daily Repeat
Assay type: toxicity, organism-based, Sprague-Dawley
Set-up: regimen Daily Repeat, gender Male, age 6-8 weeks
Settings: in vivo, po, 0 mg/kg, 120 h, tissue Blood, route oral GAVAGE, dose level Control, time 5 day, vehicle .5 % CMC
Here the recorded LEUKOCYTE COUNT is given for each entry.
Report the value in x10E3/uL with no unit label.

Use the examples below as a reference point.
1. O=C1CN=C(c2ccccc2Cl)c2cc([N+](=O)[O-])ccc2N1
15.03
2. O=C1Nc2ccc(Cl)cc2C(c2ccccc2Cl)=NC1O (stereo not drawn)
15.07
3. CC(=O)Oc1ccc(C(c2ccc(OC(C)=O)cc2)c2ccccn2)cc1
12.43
4. COc1ccc(C2C(=O)c3ccccc3C2=O)cc1
9.5
5. CNCCC(Oc1ccc(C(F)(F)F)cc1)c1ccccc1 (stereo not drawn)
11.87

For `NCCCC(O)(P(=O)(O)O)P(=O)(O)O` , what is its reported LEUKOCYTE COUNT? 9.5

`Clc1ccccc1CN1CCc2sccc2C1` , same question. 9.5

NC1CCN(c2nc3c(cc2F)c(=O)c(C(=O)O)cn3-c2ccc(F)cc2F)C1 (stereo not drawn) , same question. 11.06

`CN(C/C=C/C#CC(C)(C)C)Cc1cccc2ccccc12` , same question. 11.06

`COc1cc2nc(N3CCN(C(=O)c4ccco4)CC3)nc(N)c2cc1OC` , same question. 15.07

====

Organism: Rattus norvegicus
Type: toxicity, organism-based, Sprague-Dawley
Conditions: in vivo, po, […], 24 h, tissue Blood, route oral GAVAGE, dose 7.5 mg/Kg, dose level High, time 1 day, vehicle 100 % SALINE
Description: DrugMatrix - Regimen: Single
readoutLabel: ABSOLUTE LYMPHOCYTE (cells/µL)
Report the value in cells/µL with no unit label.

For `Nc1ncnc2c1ncn2[C@@H]1O[C@H](CO)[C@@H](O)[C@H]1F` , what is its reported ABSOLUTE LYMPHOCYTE? 7660

====

Species on record: Rattus norvegicus
Assay: DrugMatrix - Regimen: Daily Repeat
Type: toxicity, organism-based, Sprague-Dawley
Set-up: regimen Daily Repeat, gender Male, age 6-8 weeks
Details: in vivo, po, 0 mg/kg, 120 h, tissue Plasma, route oral GAVAGE, dose level Control, time 5 day, vehicle 100 % WATER
readoutLabel: ALBUMIN (G/DL)
Report the value in G/DL with no unit label.

Use the examples below as a reference point.
1) Oc1cccc(O)c1O [PYROGALLOL]
3.73
2) CN(C)CCOC(c1ccccc1)c1ccccc1 [DIPHENHYDRAMINE]
4.3
3) O.O.O.O.O.O.[Cl-].[Cl-].[Sr+2] [STRONTIUM CHLORIDE HEXAHYDRATE]
4.32
4) CS(=O)(=O)c1ccc([C@@H](O)[C@@H](CO)NC(=O)C(Cl)Cl)cc1 [THIAMPHENICOL]
4.32
5) Cc1ccc(NC(=O)c2ccc(CN3CCN(C)CC3)cc2)cc1Nc1nccc(-c2cccnc2)n1 [IMATINIB]
4.32

For CC(C)NCC(O)c1ccc(NS(C)(=O)=O)cc1 (configuration not stated) [SOTALOL] , what is its reported ALBUMIN? 4.38

CC(C)(C)CC(C)(C)c1ccc(OCCOCC[N+](C)(C)Cc2ccccc2)cc1.[Cl-] [BENZETHONIUM CHLORIDE] , same question. 4.3

CCN(CC)CCNC(=O)c1cc(S(C)(=O)=O)ccc1OC [TIAPRIDE] , same question. 4.32

C[C@]12C=CC(=O)C=C1CC[C@@H]1[C@@H]2[C@@H](O)C[C@@]2(C)[C@H]1CC[C@]2(O)C(=O)CO [PREDNISOLONE] , same question. 4.23

NNc1nncc2ccccc12 [HYDRALAZINE] , same question. 4.3

CN(C)CC[C@@H](c1ccc(Cl)cc1)c1ccccn1 [DEXCHLORPHENIRAMINE] , same question. 4.08

CN1[C@@H]2CC[C@H]1C[C@@H](OC(=O)C(CO)c1ccccc1)C2 (some centres not stated) [ATROPINE] , same question. 4.12

====

Here the recorded POTASSIUM is given for each entry.
Organism: Rattus norvegicus
Assay: DrugMatrix - Regimen: Daily Repeat
Format: toxicity, organism-based, Sprague-Dawley
Design: regimen Daily Repeat, gender Male, age 6-8 weeks
Details: in vivo, po, 0 mg/kg, 72 h, tissue Plasma, route oral GAVAGE, dose level Control, time 3 day, vehicle 100 % WATER

Use the examples below as a reference point.
1. CCN(CC)CCNC(=O)c1cc(S(C)(=O)=O)ccc1OC [TIAPRIDE]
5.99 MEQ/L
2. CS(=O)(=O)c1ccc([C@@H](O)[C@@H](CO)NC(=O)C(Cl)Cl)cc1 [THIAMPHENICOL]
5.99 MEQ/L
3. Cc1ccc(NC(=O)c2ccc(CN3CCN(C)CC3)cc2)cc1Nc1nccc(-c2cccnc2)n1 [IMATINIB]
5.99 MEQ/L
4. NNc1nncc2ccccc12 [HYDRALAZINE]
5.95 MEQ/L

For Oc1cccc(O)c1O [PYROGALLOL] , what is its reported POTASSIUM? 7.03 MEQ/L

C[C@]12C=CC(=O)C=C1CC[C@@H]1[C@@H]2[C@@H](O)C[C@@]2(C)[C@H]1CC[C@]2(O)C(=O)CO [PREDNISOLONE] , same question. 6.55 MEQ/L

CN1[C@@H]2CC[C@H]1C[C@@H](OC(=O)C(CO)c1ccccc1)C2 (stereo partly drawn) [ATROPINE] , same question. 6.08 MEQ/L

CC(C)NCC(O)c1ccc(NS(C)(=O)=O)cc1 (stereo not drawn) [SOTALOL] , same question. 6.58 MEQ/L

CC(C)(C)CC(C)(C)c1ccc(OCCOCC[N+](C)(C)Cc2ccccc2)cc1.[Cl-] [BENZETHONIUM CHLORIDE] , same question. 5.95 MEQ/L
